// provenance: patent US10800789B2

Would you kindly list EC50 for each of these compounds?
# Test system: stable HCV 2a JFH-1 Rluc replicon cells (L31 present in NS5A)
# assay comment: Renilla luciferase HCV replicon reporter assay, genotype 2a JFH-1
# Type: cell-based
# run parameters: Hepatitis C virus, read-out: 2a JFH (nM), genotype 2a JFH-1 replicon (L31 in NS5A), stable cells
The answer should read as a number with its unit following.

Sample answers from the record:
{"columns": ["compound", "measured target", "EC50"],
 "data": [
  ["CC[C@H]1CC[C@@H](c2nc3ccc4cc5c(cc4c3[nH]2)OCc2cc(-c3cnc([C@@H]4CC[C@H](C)N4C(=O)[C@@H](NC(=O)OC)[C@@H](C)CC)[nH]3)ccc2-5)N1C(=O)[C@@H](NC(=O)OC)C1CCOCC1", "stable HCV 2a JFH-1 Rluc replicon cells (L31 present in NS5A)", "0.015 nM"],
  ["CC[C@H]1CC[C@@H](c2ncc(-c3ccc4c(c3)COc3cc5c(ccc6nc([C@@H]7CC[C@H](C)N7C(=O)[C@@H](NC(=O)OC)[C@@H](C)OC)[nH]c65)cc3-4)[nH]2)N1C(=O)[C@H](C)NC(=O)OC", "stable HCV 2a JFH-1 Rluc replicon cells (L31 present in NS5A)", "0.027 nM"],
  ["CC[C@H]1CC[C@@H](c2ncc(-c3ccc4c(c3)COc3cc5c(ccc6nc([C@@H]7CC[C@H](C)N7C(=O)[C@@H](NC(=O)OC)[C@@H](C)CC)[nH]c65)cc3-4)[nH]2)N1C(=O)C(NC(=O)OC)C1CCOCC1 (stereo partly drawn)", "stable HCV 2a JFH-1 Rluc replicon cells (L31 present in NS5A)", "0.012 nM"],
  ["COC(=O)N[C@H](C(=O)N1C(c2ncc(-c3ccc4c(c3)COc3cc5c(ccc6nc(C7C[C@H](C)CN7C(=O)[C@@H](NC(=O)OC)C(C)(C)C)[nH]c65)cc3-4)[nH]2)CC[C@@H]1C)C(C)C (stereo partly drawn)", "stable HCV 2a JFH-1 Rluc replicon cells (L31 present in NS5A)", "0.018 nM"],
  ["CC[C@H]1CC[C@@H](c2nc3ccc4cc5c(cc4c3[nH]2)OCc2cc(-c3cnc([C@@H]4CC[C@H](C)N4C(=O)[C@@H](NC(=O)OC)C(C)C)[nH]3)ccc2-5)N1C(=O)[C@@H](NC(=O)OC)[C@@H](C)O", "stable HCV 2a JFH-1 Rluc replicon cells (L31 present in NS5A)", "0.017 nM"]
]}

Answer for every listed entry: what is its EC50? The entries follow.
1. COC(=O)N[C@@H](C)C(=O)N1[C@@H](C)CC[C@H]1c1ncc(-c2ccc3c(c2)COc2cc4c(ccc5nc([C@@H]6CC[C@H](C)N6C(=O)[C@@H](NC(=O)OC)C(C)C)[nH]c54)cc2-3)[nH]1
2. COC(=O)N[C@H](C(=O)N1[C@@H](C)CC[C@H]1c1nc(C)c(-c2ccc3c(c2)COc2cc4c(ccc5nc([C@@H]6CC[C@H](C)N6C(=O)[C@@H](NC(=O)OC)[C@@H](C)OC)[nH]c54)cc2-3)[nH]1)[C@@H](C)OC
3. CC[C@H]1CC[C@@H](c2nc3ccc4cc5c(cc4c3[nH]2)OCc2cc(-c3cnc([C@@H]4CC[C@H](CC)N4C(=O)[C@@H](NC(=O)OC)C4CCOCC4)[nH]3)ccc2-5)N1C(=O)[C@@H](NC(=O)OC)C(C)C

Response:
1. 0.019 nM
2. 0.035 nM
3. 0.029 nM

Request: Determine its reported EC50: COC(=O)NC(C(=O)N1[C@@H](C)CC[C@H]1c1nc2ccc3cc4c(cc3c2[nH]1)OCc1cc(-c2cnc([C@@H]3CC[C@H](C)N3C(=O)[C@@H](NC(=O)OC)[C@@H](C)OC)[nH]2)ccc1-4)C1CCOCC1 (stereo partly drawn)
Response: 0.022 nM
